tested on: wheat (Wh); assay: Test Example 3: phytotoxicity to upland crop plants, treatment before emergence; format: in vivo; conditions: dosage 5 kg/ha

structure	measuredOn	Phytotoxicity Wh
CCCNC(=O)c1nc2cnn(C)c2cc1C(=O)Nc1c(CC)ccc(Cl)c1CC	wheat (Wh)	5 (Crop-killing rate is 100%.)
CCCNC(=O)c1nc2ccccc2nc1C(=O)Nc1cccc(Cl)c1C	wheat (Wh)	5 (Crop-killing rate is 100%.)
CCCNC(=O)c1nc2occc2cc1C(=O)Nc1c(CC)ccc(Cl)c1CC	wheat (Wh)	5 (Crop-killing rate is 100%.)
CCCNC(=O)c1nc2ocnc2cc1C(=O)Nc1c(CC)ccc(Cl)c1CC	wheat (Wh)	5 (Crop-killing rate is 100%.)
CCCNC(=O)c1nc2cscc2cc1C(=O)Nc1c(CC)ccc(Cl)c1CC	wheat (Wh)	5 (Crop-killing rate is 100%.)
CCCNC(=O)c1nc2ncccc2cc1C(=O)Nc1c(CC)ccc(Cl)c1CC	wheat (Wh)	4 (Crop-killing rate is 90-99%.)
CCc1ccc(Cl)c(CC)c1NC(=O)c1cc2cc(OC)c(OC)cc2nc1C(=O)NCC(C)C	wheat (Wh)	2 (Crop-killing rate is 40-69%.)
Cc1c(Cl)cccc1NC(=O)c1cc2c(nc1C(=O)NCC(C)C)SCCC2	wheat (Wh)	5 (Crop-killing rate is 100%.)
